Cited source for all entries: patent US8642601B2

# Lookup of reported melting point keyed by entry

| Molecule | Observed value |
| --- | --- |
| CCN1CC[C@@H](NC(=O)[C@H]2CC[C@H](Nc3nccc(-n4ccc5c(OCCCS(C)(=O)=O)cccc54)n3)CC2)C1 | 229 to 231 °C |

What measured melting point goes with CC1(C(=O)O)CCN(C(=O)[C@H]2CC[C@H](Nc3nccc(-n4ccc5c(OCCCS(C)(=O)=O)cccc54)n3)CC2)CC1 ?
174 °C

What measured melting point goes with CS(=O)(=O)CCCOc1cccc2c1ccn2-c1ccnc(N[C@H]2CC[C@H](C(=O)N3CCC(C(N)=O)CC3)CC2)n1 ?
219 to 221 °C

What measured melting point goes with CCOC(=O)CC1CCN(C(=O)[C@H]2CC[C@H](Nc3nccc(-n4ccc5c(OCCCS(C)(=O)=O)cccc54)n3)CC2)CC1 ?
175 to 177 °C

* * *

Structures can show the parent of a compound that is named as a salt.
Experimental endpoint: melting point

Look over these answered cases.
| Molecule | Observed value |
| --- | --- |
| CCN1CCN(C(=O)[C@H]2CC[C@H](Nc3nccc(-n4ccc5c(OCC6CCS(=O)(=O)C6)cccc54)n3)CC2)C[C@H]1C (some centres unmarked) (as salt: HCl) | 225 °C |
| CCCN1CCC[C@H](NC(=O)[C@H]2CC[C@H](Nc3nccc(-n4ccc5c(OCCCS(C)(=O)=O)cccc54)n3)CC2)C1 (stereo in doubt) (as salt: HCl) | 185 to 190 °C |

What measured melting point goes with CCN1CC[C@H](NC(=O)[C@H]2CC[C@H](Nc3nccc(-n4ccc5c(OCCCS(C)(=O)=O)cccc54)n3)CC2)C1 (as salt: HCl) ?
160 to 162 °C

What measured melting point goes with C[C@H]1CN(C(=O)[C@H]2CC[C@H](Nc3nccc(-n4ncc5c(OCC6CCS(=O)(=O)C6)cccc54)n3)CC2)CCN1 (some centres unmarked) (as salt: HCl) ?
245 to 250 °C

What measured melting point goes with O=C(O)C1CCN(C(=O)[C@H]2CC[C@H](Nc3nccc(-n4ccc5c(OCC6CCS(=O)(=O)C6)cccc54)n3)CC2)CC1 (some centres unmarked) ?
172 to 174 °C

What measured melting point goes with CCCN1CCC[C@@H](NC(=O)[C@H]2CC[C@H](Nc3nccc(-n4ccc5c(OCCCS(C)(=O)=O)cccc54)n3)CC2)C1 ?
185 to 190 °C

What measured melting point goes with CCOC(=O)C1CCN(C(=O)[C@H]2CC[C@H](Nc3nccc(-n4ccc5c(OCC6CCS(=O)(=O)C6)cccc54)n3)CC2)CC1 (some centres unmarked) ?
209 to 211 °C

* * *

# Lookup of reported melting point keyed by entry
Where a name gives a salt, the structure may show the parent alone.

Look over these answered cases.
| Compound | melting point |
| --- | --- |
| C[C@@H]1CN(C(=O)[C@H]2CC[C@H](Nc3nccc(-n4ncc5c(OCCCS(C)(=O)=O)cccc54)n3)CC2)CCN1 (as salt: HCl) | 245 to 250 °C |
| CCOC(=O)C1(C)CCN(C(=O)[C@H]2CC[C@H](Nc3nccc(-n4ccc5c(OCCCS(C)(=O)=O)cccc54)n3)CC2)CC1 | 171 to 173 °C |
| CC(C)(O)C1CCN(C(=O)[C@H]2CC[C@H](Nc3nccc(-n4ccc5c(OCCCS(C)(=O)=O)cccc54)n3)CC2)CC1 | 196 to 198 °C |

What measured melting point goes with CCN1CCCC(NC(=O)[C@H]2CC[C@H](Nc3nccc(-n4ccc5c(OCC6CCS(=O)(=O)C6)cccc54)n3)CC2)C1 (stereo partly shown) (as salt: HCl) ?
205 to 210 °C

What measured melting point goes with CCN1CCC[C@@H](NC(=O)[C@H]2CC[C@H](Nc3nccc(-n4ccc5c(OCCCS(C)(=O)=O)cccc54)n3)CC2)C1 (as salt: HCl) ?
180 to 185 °C

What measured melting point goes with CS(=O)(=O)CCCOc1cccc2c1ccn2-c1ccnc(N[C@H]2CC[C@H](C(=O)N3CCC[C@H](C(=O)O)C3)CC2)n1 ?
270 to 276 °C

What measured melting point goes with CC1(C)CN(C(=O)[C@H]2CC[C@H](Nc3nccc(-n4ccc5c(OCC6CCS(=O)(=O)C6)cccc54)n3)CC2)CCN1 (stereo partly shown) (as salt: HCl) ?
> 300 °C

What measured melting point goes with CCOC1CC2CCC(C1)N2C(=O)[C@H]1CC[C@H](Nc2nccc(-n3ccc4c(OCCCS(C)(=O)=O)cccc43)n2)CC1 (stereo partly shown) (as salt: salt) ?
125 to 130 °C

What measured melting point goes with CCN1CCN(C(=O)[C@H]2CC[C@H](Nc3nccc(-n4ccc5c(OCC6CCS(=O)(=O)C6)cccc54)n3)CC2)C[C@@H]1C (stereo partly shown) (as salt: HCl) ?
198 to 204 °C

What measured melting point goes with CCCN1CC[C@@H](NC(=O)[C@H]2CC[C@H](Nc3nccc(-n4ccc5c(OCCCS(C)(=O)=O)cccc54)n3)CC2)C1 (as salt: HCl) ?
140 to 142 °C
